Biological target: human EGF-R (Homo sapiens)
Construct: packaging line GP+E86)
Sequence (P00533 25-1210): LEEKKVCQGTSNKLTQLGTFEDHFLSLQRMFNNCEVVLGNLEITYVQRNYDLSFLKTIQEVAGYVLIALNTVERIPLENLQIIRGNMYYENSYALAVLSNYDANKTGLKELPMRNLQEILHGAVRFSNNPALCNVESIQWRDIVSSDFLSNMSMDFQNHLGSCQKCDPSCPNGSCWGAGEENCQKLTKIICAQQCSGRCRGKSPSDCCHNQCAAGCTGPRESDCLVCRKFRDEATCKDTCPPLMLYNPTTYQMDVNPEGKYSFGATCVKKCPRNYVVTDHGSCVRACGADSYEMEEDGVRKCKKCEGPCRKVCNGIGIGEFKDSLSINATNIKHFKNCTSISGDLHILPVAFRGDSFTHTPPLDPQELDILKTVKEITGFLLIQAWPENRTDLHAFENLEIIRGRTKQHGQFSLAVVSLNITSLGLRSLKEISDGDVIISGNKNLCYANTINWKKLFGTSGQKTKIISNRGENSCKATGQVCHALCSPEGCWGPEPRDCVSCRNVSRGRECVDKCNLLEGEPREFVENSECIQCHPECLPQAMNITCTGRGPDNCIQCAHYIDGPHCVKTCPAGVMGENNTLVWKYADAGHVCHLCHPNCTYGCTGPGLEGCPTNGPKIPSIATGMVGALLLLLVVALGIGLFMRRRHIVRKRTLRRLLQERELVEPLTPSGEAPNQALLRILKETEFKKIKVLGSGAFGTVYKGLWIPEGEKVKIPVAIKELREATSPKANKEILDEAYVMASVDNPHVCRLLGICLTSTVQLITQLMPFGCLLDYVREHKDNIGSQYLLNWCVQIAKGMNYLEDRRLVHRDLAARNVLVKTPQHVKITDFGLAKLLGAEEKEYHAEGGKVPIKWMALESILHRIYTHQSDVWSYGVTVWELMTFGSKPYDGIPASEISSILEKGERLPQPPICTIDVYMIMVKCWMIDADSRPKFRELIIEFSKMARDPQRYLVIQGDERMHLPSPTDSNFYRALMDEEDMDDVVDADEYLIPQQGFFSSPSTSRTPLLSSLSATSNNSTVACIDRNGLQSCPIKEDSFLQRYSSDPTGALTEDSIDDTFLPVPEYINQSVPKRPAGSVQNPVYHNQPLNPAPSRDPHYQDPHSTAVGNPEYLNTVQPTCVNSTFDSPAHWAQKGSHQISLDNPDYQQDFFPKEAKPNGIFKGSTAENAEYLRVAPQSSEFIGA
Experiment: Inhibition of EGF-dependent proliferation of F/L-HERc cells (Cell Titer 96 AQueous assay)
Conditions: F/L-HERc cells (murine IL-3-dependent line expressing human EGF-R), stimulated with EGF 20 ng/ml, 48 hours at 37° C.
Measured Endpoint: IC50 (nM)
Numbers only here, please. The scale is nM.

Below: 3 compounds and their reported IC50.
[[record]]
compound = "O=C1CC(N2CCN(CCOc3cc4ncnc(Nc5ccc(F)c(Cl)c5)c4cc3OC3CCCC3)CC2)CO1 (stereo not shown)"
target_under_test = "human EGF-R (Homo sapiens)"
measured_endpoint = "IC50"
numeric_readout = 11

[[record]]
compound = "O=C1CC[C@H](CN2CCN(CCOc3cc4ncnc(Nc5ccc(F)c(Cl)c5)c4cc3OC3CCCC3)CC2)O1"
target_under_test = "human EGF-R (Homo sapiens)"
measured_endpoint = "IC50"
numeric_readout = 67

[[record]]
compound = "O=C1OCCC1N1CCN(CCOc2cc3ncnc(Nc4ccc(F)c(Cl)c4)c3cc2OC2CCCC2)CC1 (stereo not shown)"
target_under_test = "human EGF-R (Homo sapiens)"
measured_endpoint = "IC50"
numeric_readout = 4


Then this compound:
Complete the entry with IC50 for O=C1CC(N2CCN(CCOc3cc4ncnc(Nc5ccc(F)c(Cl)c5)c4cc3OCC3CCCC3)CC2)CO1 (stereo not shown) 62
